- TARGET OR SYSTEM: Recombinant Hepatic Lipase (Homo sapiens, UniProt P11150)
- Sequence (P11150 23-499, species assumed): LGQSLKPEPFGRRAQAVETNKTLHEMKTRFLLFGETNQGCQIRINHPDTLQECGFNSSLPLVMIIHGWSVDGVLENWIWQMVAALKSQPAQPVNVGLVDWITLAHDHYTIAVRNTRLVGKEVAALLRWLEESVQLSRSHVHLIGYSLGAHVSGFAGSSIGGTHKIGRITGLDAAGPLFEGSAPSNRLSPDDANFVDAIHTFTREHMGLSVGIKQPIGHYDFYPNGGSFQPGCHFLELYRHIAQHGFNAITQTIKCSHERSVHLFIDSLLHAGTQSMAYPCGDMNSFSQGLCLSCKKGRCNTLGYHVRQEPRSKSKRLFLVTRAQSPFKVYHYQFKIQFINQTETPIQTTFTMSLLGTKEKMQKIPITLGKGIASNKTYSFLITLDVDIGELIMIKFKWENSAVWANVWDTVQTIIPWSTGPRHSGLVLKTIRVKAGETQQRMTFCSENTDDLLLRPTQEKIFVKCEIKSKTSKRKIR
- ASSAY INFO: Hepatic Lipase Phospholipase Assay
- CONDITION DESCRIPTION: ThioPEG substrate, DTNB read at 412 nm, pH 8.3, 37° C., HL 12.5 nM
pIC50: −log10 of the molar value.
READOUT: pIC50

The cases that follow already have their pIC50 on record.
COMPOUND	QUANTITATIVE RESULT
Cc1cccc(C(C)C)c1CNC(=O)n1sc2ccccc2c1=O [drawing 19]	6.62
CCCCCCNC(=O)n1sc2ccccc2c1=O	6.14

[I] CCc1cccc(C)c1CNC(=O)n1sc2ccccc2c1=O [drawing 18]
[II] O=C(NCCCc1ccccc1)n1sc2ccccc2c1=O [drawing 20]
[III] Cc1ccc(CNC(=O)n2sc3ccccc3c2=O)cc1
**Query** // smallest pIC50 at index 0, largest at the end Write the labels, ordered according to the request.
**Result** III, II, I
(III: 6.17, II: 6.37, I: 6.63)
